The reported measurements were obtained from PubChem BioAssay (NCI).

Some molecules, each annotated with its measured log10 TGI.
Tested on: MALME-3M melanoma
Test: NCI tumour cell line growth inhibition, 48 h
quantity-measured: log10 TGI (log10 of the value in µM)

[[record]]
molecule = "Brc1ccc2c3c1[C@H]1O[C@H]1c1cccc(c1-3)[C@@H]1O[C@H]21"
quantitative_result = 1.52

[[record]]
molecule = "COc1cccc(-c2ccc3c(c2)C2CCN(Cc4ccccc4)C3C2)c1 (configuration not stated)"
quantitative_result = 1.48

[[record]]
molecule = "CCOC(=O)c1c(Br)c(-c2ccc(OC)cc2)c(Br)n1C"
quantitative_result = 1.65

[[record]]
molecule = "O=[N+]([O-])c1ccc(C2CC(c3ccccc3Cl)=Nc3ccccc3S2=O)cc1 (configuration not stated)"
quantitative_result = 1.51

[[record]]
molecule = "COc1ccc(-c2ccc(-c3ccc(C(=N)N)nc3)s2)cc1Cl"
quantitative_result = 0.52

[[record]]
molecule = "COc1cc(C2c3cc4c(cc3OC(Nc3ccccc3)C2C)OCO4)cc(OC)c1O (configuration not stated)"
quantitative_result = 1.33

[[record]]
molecule = "CCC/C=C1\\CCC(CN(C)C)C1=O (configuration not stated)"
quantitative_result = 1.06

[[record]]
molecule = "CC1=CC(=O)C(C(C)C)=CC1=Nc1cc(Br)c(O)c(Br)c1"
quantitative_result = 1.52

[[record]]
molecule = "Nc1nc(N)c(C=Nc2ccc(Br)cc2)c(Nc2ccc(Br)cc2)n1"
quantitative_result = 1.60

[[record]]
molecule = "O=C(CN1CCN(c2cc3c(cc2F)c(=O)c(C(=O)O)cn3C2CC2)CC1)Nc1nc(-c2ccc(Cl)cc2)cs1"
quantitative_result = 1.05

[[record]]
molecule = "COC(=O)C1=C(OC(=O)/C=C/c2ccccc2)C(C(=O)OC)[C@@]2(O)[C@@H](C(=O)OC)[C@H](C)C[C@@H]1[C@@H]2C(=O)OC (some centres not stated)"
quantitative_result = 1.82

[[record]]
molecule = "Cc1ccc(NC(=O)C(Cc2c[nH]c3ccccc23)NC(=O)Oc2ccccc2)cc1C (configuration not stated)"
quantitative_result = 2.00

[[record]]
molecule = "CCCC(C)n1c(C)nc2c1C(=O)c1ccccc1C2=O (configuration not stated)"
quantitative_result = 1.83

[[record]]
molecule = "O=C(O)c1cn(C2CC2)c2cc(N3CCN(C(=O)Nc4nc(-c5ccccc5)cs4)CC3)c(F)cc2c1=O"
quantitative_result = 0.81

[[record]]
molecule = "CCOC(=O)C(CC(C)C)NC(=O)CSc1nnc(COc2ccc(Cl)cc2)n1-c1ccccc1 (configuration not stated)"
quantitative_result = 1.58

[[record]]
molecule = "COc1cc(C2=NNC(=O)c3ccccc3N2c2nc(-c3cccs3)nc3ccc(Br)cc23)cc(OC)c1OC"
quantitative_result = 1.77

[[record]]
molecule = "CSc1c(C#N)c(N)nc2c(N=Nc3ccc(Br)cc3)c(N)nn12"
quantitative_result = 1.38

[[record]]
molecule = "COc1ccc2c(c1)CC[C@@H]1[C@@H]2CC[C@]2(C)[C@@H](NC(=O)/C=C/c3ccc(O)c(O)c3)CC[C@@H]12"
quantitative_result = 1.41

[[record]]
molecule = "Cn1nc(-c2ccc(Cl)cc2)nc2c(=O)n(C)c(=O)nc1-2"
quantitative_result = 0.06


====

Tested on: NCI/ADR-RES ovarian
Test: NCI tumour cell line growth inhibition, 48 h
As shown below, each of these molecules has a reported TGI value.
quantity-measured: TGI (µM)

[[record]]
molecule = "O=[N+]([O-])c1ccc(C(Nc2ccccc2)P(c2ccccc2)c2ccccc2)cc1 (stereo not given)"
comparison_sign = ">"
quantitative_result = 100

[[record]]
molecule = "COc1ccc(/C=C/C(=O)c2cc(C(C)(C)C)c(O)c(C(C)(C)C)c2)cc1OC"
comparison_sign = "="
quantitative_result = 49.7

[[record]]
molecule = "CCOC(=O)c1sc2nc(SC)nc3c2c1NCN3c1ccc(F)c(F)c1"
comparison_sign = ">"
quantitative_result = 88.8

[[record]]
molecule = "C(=N\\Nc1ccc(-c2nc3ccccc3[nH]2)cc1)/c1c(-c2ccc(Cc3ccccc3)cc2)[nH]c2ccccc12"
comparison_sign = "="
quantitative_result = 52.8

[[record]]
molecule = "O=[N+]([O-])c1ccc(N/N=C/CC(O)(C(F)(F)F)C(F)(F)F)c([N+](=O)[O-])c1"
comparison_sign = ">"
quantitative_result = 10


====

Tested on: HCT-15 colon
Assay: NCI tumour cell line growth inhibition, 48 h
quantity-measured: TGI

[[record]]
molecule = "Oc1ccc(O)c(-c2cc(-c3ccc(Cl)cc3)nn2-c2ccccc2)c1"
quantity_measured = "TGI"
result = "25.5 µM"

[[record]]
molecule = "CN=C(NC(=S)N(C)C)N(C)C"
quantity_measured = "TGI"
result = "> 100 µM"

[[record]]
molecule = "O=C(/C=C/c1ccco1)c1ccc(NCc2nc3ccccc3[nH]2)cc1"
quantity_measured = "TGI"
result = "30.3 µM"

[[record]]
molecule = "Cn1nc(-c2ccc(Cl)cc2)nc2c(=O)n(C)c(=O)nc1-2"
quantity_measured = "TGI"
result = "1.53 µM"

[[record]]
molecule = "O=[N+]([O-])c1ccc(-c2noc(-c3ccc(Cl)cc3)c2C2=NCCN2)cc1"
quantity_measured = "TGI"
result = "> 100 µM"

[[record]]
molecule = "CCOc1ccc2c(c1)[n+]([O-])c(-c1ccc(Br)cc1)c(N)[n+]2[O-]"
quantity_measured = "TGI"
result = "> 100 µM"

[[record]]
molecule = "Oc1ccc(Cl)cc1-c1cc(-c2ccccc2)nc(NCN2CCCCC2)n1"
quantity_measured = "TGI"
result = "> 100 µM"

[[record]]
molecule = "C=CCc1cc(-c2cc(CC=C)c(O)c(CN(CC)CC)c2)cc(CN(CC)CC)c1O"
quantity_measured = "TGI"
result = "51.7 µM"

[[record]]
molecule = "ON(Cc1ccccc1)C(=S)c1ccccc1"
quantity_measured = "TGI"
result = "> 100 µM"

[[record]]
molecule = "Cc1ccc(-n2cc(-c3ccc(Cl)cc3)c3c(N/N=C4\\SCC(=O)N4C)ncnc32)cc1"
quantity_measured = "TGI"
result = "> 100 µM"

[[record]]
molecule = "O=C(CCCCCC(=O)N1CC(CCl)c2ccc([N+](=O)[O-])cc21)N1CC(CCl)c2ccc([N+](=O)[O-])cc21 (configuration not stated)"
quantity_measured = "TGI"
result = "> 100 µM"

[[record]]
molecule = "CCOC(=O)c1sc2nc(SC)nc3c2c1NCN3c1ccc(F)c(F)c1"
quantity_measured = "TGI"
result = "> 100 µM"

[[record]]
molecule = "COc1cc(C2SC(C)C(=O)N2c2ccc(-c3csc(NS(=O)(=O)c4ccc(Cl)c(OC)c4)n3)cc2)ccc1O (configuration not stated)"
quantity_measured = "TGI"
result = "> 100 µM"

[[record]]
molecule = "COc1cc2oc(=O)cc(C)c2cc1O"
quantity_measured = "TGI"
result = "> 100 µM"

[[record]]
molecule = "COC1=C(C)C(=O)c2c(c(CCCl)c3n2CCC3O)C1=O (configuration not stated)"
quantity_measured = "TGI"
result = "4.4 µM"

[[record]]
molecule = "O=[N+]([O-])c1ccccc1S(=O)(=O)c1ccccc1"
quantity_measured = "TGI"
result = "> 100 µM"

[[record]]
molecule = "Nc1c(O)cc(N=C2C(=O)C=CC=C2C(=O)O)c(O)c1C(=O)O"
quantity_measured = "TGI"
result = "> 100 µM"

[[record]]
molecule = "CCOC(=O)c1cc(I)c(-c2cc(C)no2)n1C"
quantity_measured = "TGI"
result = "> 100 µM"

[[record]]
molecule = "NNc1nncc2[nH]cnc12"
quantity_measured = "TGI"
result = "> 100 µM"

[[record]]
molecule = "CSc1cc(-c2ccccn2)nc(-c2ccccn2)c1"
quantity_measured = "TGI"
result = "4.11 µM"

[[record]]
molecule = "CCCCCc1cc2cc3c(c(O)c2c(=O)[nH]1)C1(CCC3)C(O)=c2c(=O)c3c(=O)cc(OC)c(=O)c=3c(=O)c2=C1O (configuration not stated)"
quantity_measured = "TGI"
result = "2.33 µM"

[[record]]
molecule = "O=C(CN1CCN(c2cc3c(cc2F)c(=O)c(C(=O)O)cn3C2CC2)CC1)Nc1nc(-c2ccc(Cl)cc2)cs1"
quantity_measured = "TGI"
result = "23.7 µM"


====

Recorded measurements of log10 of TGI, one per entry
System: LOX IMVI melanoma
Assay: NCI tumour cell line growth inhibition, 48 h
quantity-measured: log10 of TGI (log10 of the value in µM)

[[record]]
compound = "COC(=O)C1=C(OC(=O)/C=C/c2ccccc2)C(C(=O)OC)[C@@]2(O)[C@@H](C(=O)OC)[C@H](C)C[C@@H]1[C@@H]2C(=O)OC (stereo not given in full)"
assayed_target = "LOX IMVI melanoma"
quantity_measured = "log10 of TGI"
quantitative_result = 1.97

[[record]]
compound = "COc1cccc(-c2nn(-c3ccccc3)cc2-c2ccnc(NCCNC(=O)Nc3cccc(C(F)(F)F)c3)c2)c1"
assayed_target = "LOX IMVI melanoma"
quantity_measured = "log10 of TGI"
quantitative_result = 0.48

[[record]]
compound = "N#Cc1c(Br)n(C2OC(CO)C(O)C2O)c2ncnc(N)c12 (stereo not given)"
assayed_target = "LOX IMVI melanoma"
quantity_measured = "log10 of TGI"
quantitative_result = 1.21

[[record]]
compound = "COc1ccc(S(=O)(=O)NC2=NCCN2C(=S)SN2CCn3c2nsc3=S)cc1"
assayed_target = "LOX IMVI melanoma"
quantity_measured = "log10 of TGI"
quantitative_result = 1.52

[[record]]
compound = "Fc1ccc(N=C/C=C/Nc2ccc(F)cc2)cc1"
assayed_target = "LOX IMVI melanoma"
quantity_measured = "log10 of TGI"
quantitative_result = 1.27

